Below is a list of entries, each paired with its recorded Proteinase 3 kobs/[I] value.
Target: Proteinase 3 (Homo sapiens, UniProt P24158)
Sequence (P24158 28-248): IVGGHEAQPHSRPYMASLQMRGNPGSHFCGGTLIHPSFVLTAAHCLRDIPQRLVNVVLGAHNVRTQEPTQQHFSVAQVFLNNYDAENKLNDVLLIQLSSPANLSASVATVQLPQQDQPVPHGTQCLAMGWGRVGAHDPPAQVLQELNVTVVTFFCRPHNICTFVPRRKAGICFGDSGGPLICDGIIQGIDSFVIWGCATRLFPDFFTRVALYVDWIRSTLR
Assay: Protease inhibition assay, second order rate constant kobs/[I] (method of Tian and Tsou)
Type: biochemical
Where no end group is shown, it is not given here. [ ]: non-standard residue; d: D form. The star is where a group is joined. AlaP = not defined here; pentyl = CCCCC*
Give a bare numeral; the unit M⁻¹ s⁻¹ is implied.

Solved cases (3 shown):
substance="Ac-Asp-Tyr-Asp-Ala^P(O—C6H4-4-Cl)2 (Ac-DYD[AlaP]; not fully specified (C-terminus); printed as Ac-Asp-Tyr-Asp-Ala^P(O—C6H4-4-Cl)2; reading uncertain; also: C-terminal Ala as phosphonate analogue (Ala^P)) [Compound 1]" system="Proteinase 3 (Homo sapiens, UniProt P24158)" value=1.9
substance="CH3(CH2)4-Pro-Tyr-Asp-Ala^P(O—C6H4-4-Cl)2 (pentyl-PYD[AlaP]; not fully specified (C-terminus); printed as CH3(CH2)4-Pro-Tyr-Asp-Ala^P(O—C6H4-4-Cl)2; reading uncertain; also: C-terminal Ala as phosphonate analogue (Ala^P)) [Compound 8]" system="Proteinase 3 (Homo sapiens, UniProt P24158)" value=4418
substance="^+H2N-Pro-Tyr-Asp-Ala^P(O—C6H4-4-Cl)2 (H-PYD[AlaP]; not fully specified (C-terminus); printed as ^+H2N-Pro-Tyr-Asp-Ala^P(O—C6H4-4-Cl)2; reading uncertain; also: C-terminal Ala as phosphonate analogue (Ala^P)) [Compound 10]" system="Proteinase 3 (Homo sapiens, UniProt P24158)" value=4.7

Input: Fill in: Proteinase 3 kobs/[I] of Biotin-Val-Tyr-Asp-Ala^P(O—C6H4-4-Cl)2 [Compound 6] is ___
Output: 17396
